- Tested on: HepG2
- EXPERIMENT NOTES: cytotoxicity call (relative viability < 0.9)
- CONDITION DESCRIPTION: 10 µM
The campaign covered roughly 39,000 compounds. About 3,300 (8.5%) were called active. The list comes from a sample in which actives are over-represented; it also holds close analogues and randomly drawn compounds.
Reply using exactly one outcome from active, inactive

As a guide, the following entries are already answered.
MOLECULE SMILES | QUALITATIVE LABEL
Cc1ccc(S(=O)(=O)N(C)C[C@@H]2OCCCC[C@H](C)Oc3ccc(NC(=O)Cc4ccccc4)cc3C(=O)N([C@H](C)CO)C[C@@H]2C)cc1 | active
C[C@H](CO)N1C[C@H](C)[C@@H](CN(C)S(=O)(=O)c2cn(C)cn2)Oc2ccc(NC(=O)Cn3cnnn3)cc2CC1=O | inactive
Cc1ccc(S(=O)(=O)N(C)C[C@H]2OCCCC[C@H](C)Oc3ccc(NC(=O)Cc4ccccc4)cc3C(=O)N([C@@H](C)CO)C[C@@H]2C)cc1 | active

[ask] Query: recorded result category for Cc1ccc(S(=O)(=O)N(C)C[C@@H]2OCCCC[C@@H](C)Oc3ccc(NC(=O)Cc4ccccc4)cc3C(=O)N([C@H](C)CO)C[C@@H]2C)cc1 in this test
[reply] inactive

[ask] Query: recorded result category for C[C@@H]1CN([C@H](C)CO)C(=O)Cc2cc(NC(=O)C3CCCCC3)ccc2O[C@@H]1CN(C)Cc1ccc(C(F)(F)F)cc1 in this test
[reply] active

[ask] Query: recorded result category for COc1ccccc1CNC(=O)C[C@@H]1CC[C@@H]2[C@H](COC[C@@H](O)CN2C(=O)Nc2ccc(F)cc2)O1 in this test
[reply] inactive

[ask] Query: recorded result category for O=C(C[C@@H]1CC[C@H]2[C@@H](COC[C@H](O)CN2C(=O)Nc2cccc(Cl)c2)O1)NCc1ccccc1F in this test
[reply] inactive

[ask] Query: recorded result category for C[C@@H]1CN([C@@H](C)CO)C(=O)c2c(c3ccccc3n2C)-c2ccccc2CO[C@H]1CN(C)C(=O)c1ccc(F)cc1 in this test
[reply] inactive

[ask] Query: recorded result category for CC(C)CC(=O)Nc1cncc(-c2ccc3[nH]nc(-c4nc5cncc(-c6cccc(F)c6)c5[nH]4)c3c2)c1 in this test
[reply] active

====

- System: HepG2
- EXPERIMENT NOTES: cytotoxicity call (relative viability < 0.9)
- CONDITION DESCRIPTION: 10 µM
In all, about 39,000 compounds went through this assay and about 3,300 (8.5%) were called active. The full list was thinned out, with actives kept by preference.
Reply using exactly one outcome from yes (active), no (inactive)

As a guide, the following entries are already answered.
MOLECULE SMILES | QUALITATIVE LABEL
CC(C)NC(=O)Nc1cccc2c1O[C@H](CN(C)Cc1ccc(Oc3ccccc3)cc1)[C@@H](C)CN([C@@H](C)CO)C2=O | yes
CCCCCCCCCCCCCCCCCCCC(=O)N[C@H]1CC[C@@]2(C)[C@@H](C1)C[C@@H](O)[C@@H]1[C@@H]2C[C@H](O)[C@]2(C)[C@@H]([C@H](C)CCC(=O)O)CC[C@@H]12 | no
COc1ccc(NC(=O)Nc2cccc3c2O[C@H](CN(C)Cc2ccc(Oc4ccccc4)cc2)[C@H](C)CN([C@@H](C)CO)C3=O)cc1 | no
CCn1c(N)nc2c1c(=O)[nH]c(=O)n2C | no

[ask] Query: recorded result category for O=C(C[C@@H]1CC[C@@H]2[C@H](COC[C@@H](O)CN2C(=O)c2cccnc2)O1)NCc1ccc(-c2ccccc2)cc1 in this test
[reply] no

[ask] Query: recorded result category for C[C@@H]1CN([C@@H](C)CO)C(=O)c2cccc(NC(=O)Nc3ccccc3)c2O[C@@H]1CN(C)Cc1ccc(Oc2ccccc2)cc1 in this test
[reply] yes

[ask] Query: recorded result category for CC(C)NC(=O)Nc1cccc2c1O[C@@H](CN(C)Cc1ccc(Oc3ccccc3)cc1)[C@@H](C)CN([C@@H](C)CO)C2=O in this test
[reply] no

====

- Test system: HepG2
- EXPERIMENT NOTES: cytotoxicity call (relative viability < 0.9)
- CONDITION DESCRIPTION: 10 µM
Out of some 39,000 compounds screened, about 3,300 (8.5%) were called active. For the sample, actives were picked, then their nearest neighbours and some compounds at random.
Reply using exactly one outcome from active, inactive

As a guide, the following entries are already answered.
MOLECULE SMILES | QUALITATIVE LABEL
CNC(=O)[C@@H](c1ccccc1)N1CCc2cc(OC)c(OC)cc2[C@@H]1CCc1ccc(C(F)(F)F)cc1 | inactive
Cc1ccc(S(=O)(=O)Nc2ccc3c(c2)CC(=O)N([C@@H](C)CO)C[C@@H](C)[C@@H](CN(C)Cc2ccc(Cl)c(Cl)c2)O3)cc1 | active
O=C(C[C@H]1CC[C@H](NC(=O)c2ccc(F)cc2)[C@H](CO)O1)NCc1ccncn1 | inactive
CCS(=O)(=O)NCC[C@@H]1CC[C@@H](NC(=O)C2CC2)[C@@H](CO)O1 | inactive
C[C@H]1CCCCO[C@H](CN(C)C(=O)Cc2ccccc2)[C@@H](C)CN([C@@H](C)CO)C(=O)c2cc(NC(=O)C3CCCCC3)ccc2O1 | inactive
CCn1c(=S)[nH]c2ccccc21 | inactive

[ask] Query: recorded result category for C[C@H]1CN([C@@H](C)CO)S(=O)(=O)c2ccc(C#Cc3ccc(F)cc3)cc2O[C@@H]1CN(C)S(=O)(=O)c1ccc(F)cc1 in this test
[reply] inactive

[ask] Query: recorded result category for COCC#Cc1cnc2c(c1)C(=O)N([C@H](C)CO)C[C@@H](C)[C@@H](CN(C)S(=O)(=O)c1ccccc1)O2 in this test
[reply] inactive

[ask] Query: recorded result category for C[C@@H]1CN([C@H](C)CO)S(=O)(=O)c2ccc(C#Cc3ccncc3)cc2O[C@@H]1CN(C)S(=O)(=O)c1ccc(F)cc1 in this test
[reply] active

[ask] Query: recorded result category for Cc1ccc(S(=O)(=O)Nc2ccc3c(c2)CC(=O)N([C@@H](C)CO)C[C@H](C)[C@@H](CN(C)Cc2ccc(Cl)c(Cl)c2)O3)cc1 in this test
[reply] inactive

[ask] Query: recorded result category for Cc1ccc(S(=O)(=O)Nc2ccc3c(c2)CC(=O)N([C@H](C)CO)C[C@@H](C)[C@H](CN(C)Cc2ccc(Cl)c(Cl)c2)O3)cc1 in this test
[reply] inactive

====

- Tested on: HepG2
- EXPERIMENT NOTES: cytotoxicity call (relative viability < 0.9)
- CONDITION DESCRIPTION: 10 µM
Out of some 39,000 compounds screened, about 3,300 (8.5%) were called active. The sample as a whole holds a higher share of actives than the screen did.
Reply using exactly one outcome from active, inactive

MOLECULE SMILES | QUALITATIVE LABEL
CCNc1nc(NCC)nc(C(=O)OCCO)n1 | active

[ask] Query: recorded result category for Oc1c(Br)cc(Br)c2cccnc12 in this test
[reply] active

[ask] Query: recorded result category for COc1ccc(NC(=O)Nc2ccc3c(c2)CC(=O)N([C@H](C)CO)C[C@@H](C)[C@H](CN(C)Cc2ccc(-c4ccccc4)cc2)O3)cc1 in this test
[reply] inactive

[ask] Query: recorded result category for COc1ccc(NC(=O)Nc2ccc3c(c2)CC(=O)N([C@@H](C)CO)C[C@H](C)[C@@H](CN(C)Cc2ccc(-c4ccccc4)cc2)O3)cc1 in this test
[reply] inactive

[ask] Query: recorded result category for CN(C)CCCNC(=O)C[C@@H]1CC[C@@H]2[C@H](COc3ccc(NC(=O)c4ccc5c(c4)OCO5)cc3C(=O)N2C)O1 in this test
[reply] inactive

[ask] Query: recorded result category for C[C@@H]1CN([C@H](C)CO)C(=O)Cc2cc(NC(=O)Cn3cnnn3)ccc2O[C@H]1CN(C)Cc1ccc(Oc2ccccc2)cc1 in this test
[reply] inactive

[ask] Query: recorded result category for C[C@@H]1CN([C@@H](C)CO)C(=O)c2cc(NC(=O)Nc3ccccc3)ccc2O[C@@H](C)C/C=C/CO[C@H]1CN(C)S(=O)(=O)c1ccc(F)cc1 in this test
[reply] active

[ask] Query: recorded result category for C[C@@H]1CN([C@@H](C)CO)C(=O)c2cc(NC(=O)Nc3ccccc3)ccc2O[C@@H](C)C/C=C\CO[C@H]1CN(C)S(=O)(=O)c1ccc(F)cc1 in this test
[reply] inactive

====

- System: HepG2
- EXPERIMENT NOTES: cytotoxicity call (relative viability < 0.9)
- CONDITION DESCRIPTION: 10 µM
Among all 39,000 compounds or so, about 3,300 (8.5%) were called active. Many of the other results were omitted from the sample, so actives are more common in it than they were.
Reply using exactly one outcome from 1.0 = active, 0.0 = inactive

As a guide, the following entries are already answered.
MOLECULE SMILES | QUALITATIVE LABEL
C[C@@H]1CN([C@H](C)CO)C(=O)c2cc(NC(=O)Nc3cccc4ccccc34)ccc2O[C@H]1CN(C)C(=O)Nc1ccc2c(c1)OCO2 | 0.0
C[C@H](CO)N1C[C@H](C)[C@H](CN(C)Cc2ccc(Cl)c(Cl)c2)Oc2ccc(NS(=O)(=O)c3ccc(F)cc3)cc2CC1=O | 0.0
C[C@@H]1CN([C@H](C)CO)C(=O)Cc2cc(NS(=O)(=O)c3ccc(F)cc3)ccc2O[C@H]1CN(C)Cc1ccc(Cl)c(Cl)c1 | 1.0
C[C@H](CO)N1C[C@H](C)[C@H](CN(C)Cc2ccncc2)Oc2ccc(NS(=O)(=O)c3cn(C)cn3)cc2CC1=O | 0.0
Cc1noc(C)c1NC(=O)Nc1ccc2c(c1)C(=O)N([C@@H](C)CO)C[C@H](C)[C@@H](CN(C)Cc1ccc(Cl)c(Cl)c1)OCCCC[C@H](C)O2 | 0.0
C[C@@H]1CN([C@H](C)CO)C(=O)c2cccc(NS(C)(=O)=O)c2O[C@@H]1CN(C)Cc1ccc2c(c1)OCO2 | 0.0

Now take the following compound into account.
[ask] Query: recorded result category for C[C@H](CO)N1C[C@H](C)[C@@H](CN(C)Cc2ccc(Cl)c(Cl)c2)Oc2ccc(NS(=O)(=O)c3ccc(F)cc3)cc2CC1=O in this test
[reply] 0.0
